Recorded values, source patent US20160244497A1.

- TARGET DESC: beta-klotho
- TEST DETAILS: cell-based or functional assay
The reader will find reported In Vitro Activity EC50, ELK-luciferase assay values listed item by item below.
Kindly provide the numeric value in nM only, without the unit symbol.

INSERT INTO results (binder, endpoint_value) VALUES
  ('Native FGF21 (random), 2 x 20k PEG (ligand, two 20k PEG at random sites (sites not given)) MHPIPDSSPLLQFGGQVRQRYLYTDDAQQTEAHLEIREDGTVGGAADQSPESLLQLKALKPGVIQILGVKTSRFLCQRPDGALYGSLHFDPEACSFRELLLEDGYNVYQSEAHGLPLHLPGNKSPHRDPAPRGPARFLPLPGLPPAPPEPPGILAPQPPDVGSSDPLSMVGPSQGRSPSYAS', 200),
  ('FGF21(all K to all R, R36K), 2 x 20k PEG (ligand, two 20k PEG (amine-specific): N-terminus and Lys 36) MHPIPDSSPLLQFGGQVRQRYLYTDDAQQTEAHLEIKEDGTVGGAADQSPESLLQLRALRPGVIQILGVRTSRFLCQRPDGALYGSLHFDPEACSFRELLLEDGYNVYQSEAHGLPLHLPGNRSPHRDPAPRGPARFLPLPGLPPAPPEPPGILAPQPPDVGSSDPLSMVGPSQGRSPSYAS', 73);

Please find the next binder below.
Per the record, FGF21(K56/59/69R), 2 x 20k PEG (ligand, two 20k PEG (amine-specific): N-terminus and the one remaining lysine (Lys 122)) MHPIPDSSPLLQFGGQVRQRYLYTDDAQQTEAHLEIREDGTVGGAADQSPESLLQLRALRPGVIQILGVRTSRFLCQRPDGALYGSLHFDPEACSFRELLLEDGYNVYQSEAHGLPLHLPGNKSPHRDPAPRGPARFLPLPGLPPAPPEPPGILAPQPPDVGSSDPLSMVGPSQGRSPSYAS has In Vitro Activity EC50, ELK-luciferase assay of 500
